# experimentalSystem: CYP3A4 (Homo sapiens)
# Sequence (P08684 whole entry): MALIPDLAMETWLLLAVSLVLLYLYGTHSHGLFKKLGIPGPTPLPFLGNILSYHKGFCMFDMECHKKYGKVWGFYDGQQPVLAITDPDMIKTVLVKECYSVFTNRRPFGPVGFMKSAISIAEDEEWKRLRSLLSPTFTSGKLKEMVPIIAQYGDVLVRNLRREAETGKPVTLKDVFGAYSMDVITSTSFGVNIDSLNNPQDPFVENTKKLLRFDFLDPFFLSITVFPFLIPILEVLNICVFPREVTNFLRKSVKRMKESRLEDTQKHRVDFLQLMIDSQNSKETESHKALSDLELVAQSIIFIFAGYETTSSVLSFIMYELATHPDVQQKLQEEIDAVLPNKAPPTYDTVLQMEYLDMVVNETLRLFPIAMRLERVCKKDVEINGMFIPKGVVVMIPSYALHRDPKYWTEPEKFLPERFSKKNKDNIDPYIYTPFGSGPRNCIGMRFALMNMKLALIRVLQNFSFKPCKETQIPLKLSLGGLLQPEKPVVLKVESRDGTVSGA
# runDescription: CYP inhibition
# Type: in vitro ADME
# conditionSummary: CYP3A4 inhibition, testosterone
propertyLabel: IC50 (µM)
Write down the numeric answer in µM and omit the unit.

Input line: Which IC50 is listed for CCn1ncc2c1-c1cnc(N)c(c1)O[C@H](C)c1cc(F)ccc1-c1nn(C)nc1C2 ?
Output line: 62.7

* * *

# runDescription: Phase 1/2 clinical study: pharmacokinetics
# Format: in vivo, human
# conditionSummary: human, plasma, oral, 25 mg, Cycle 1 Day 1; 25 mg QD; geometric mean
propertyLabel: Cmax (ng/mL)
# number only, unit ng/mL dropped from output

Input line: Cmax lookup needed for CCn1ncc2c1-c1cnc(N)c(c1)O[C@H](C)c1cc(F)ccc1-c1nn(C)nc1C2 , thanks.
Output line: 199

* * *

# runDescription: Phase 1/2 clinical study: pharmacokinetics
# Format: in vivo, human
# conditionSummary: human, plasma, oral, 125 mg, Cycle 1 Day 1; 125 mg QD; geometric mean
# Excerpt: Each cycle of treatment is 28 days.
propertyLabel: Cmax (µg/mL)
Answer format: numeric, µg/mL implied, no suffix.

Input line: // query Cmax value for entry CCn1ncc2c1-c1cnc(N)c(c1)O[C@H](C)c1cc(F)ccc1-c1nn(C)nc1C2
Output line: 0.943

* * *

# runDescription: Phase 1/2 clinical study: pharmacokinetics
# Assay type: in vivo, human
# conditionSummary: human, plasma, oral, 75 mg, Cycle 1 Day 15; 75 mg QD; geometric mean
propertyLabel: AUC(0-inf)
Remember to put the unit after the number in your answer.

Input line: Give its AUC(0-inf) value. Item: CCn1ncc2c1-c1cnc(N)c(c1)O[C@H](C)c1cc(F)ccc1-c1nn(C)nc1C2 [Compound 1]
Output line: 13500 ng·h/mL

* * *

# runDescription: Phase 1/2 clinical study: pharmacokinetics
# Assay type: in vivo, human
# conditionSummary: human, plasma, oral; Cycle 1 Day 1; 125 mg QD; geometric mean
propertyLabel: AUC(0-t)

Input line: Which AUC(0-t) value is on record for CCn1ncc2c1-c1cnc(N)c(c1)O[C@H](C)c1cc(F)ccc1-c1nn(C)nc1C2 ?
Output line: 5020 ng·h/mL

* * *

# runDescription: Phase 1/2 clinical study: pharmacokinetics
# Assay type: in vivo, human
# conditionSummary: human, plasma, oral; Cycle 1 Day 15; 125 mg QD; geometric mean
propertyLabel: AUC (ng·h/mL)
Kindly answer with a numeric value in ng·h/mL, unit omitted.

Input line: # lookup: AUC of CCn1ncc2c1-c1cnc(N)c(c1)O[C@H](C)c1cc(F)ccc1-c1nn(C)nc1C2 [Compound 1]
Output line: 6600

* * *

# runDescription: Phase 1/2 clinical study: pharmacokinetics
# Type: in vivo, human
# conditionSummary: human, plasma, oral, 50 mg, Cycle 1 Day 15; 50 mg QD; geometric mean
propertyLabel: AUC(0-inf) (ng·h/mL)
Please state the figure in ng·h/mL; there is no need to write the unit.

Input line: Given the entry CCn1ncc2c1-c1cnc(N)c(c1)O[C@H](C)c1cc(F)ccc1-c1nn(C)nc1C2 [Compound 1] , report its measured AUC(0-inf).
Output line: 6070
